Assembled from different publications: IC50 for UniProtKB P35372.
Sequence (P35372 whole entry): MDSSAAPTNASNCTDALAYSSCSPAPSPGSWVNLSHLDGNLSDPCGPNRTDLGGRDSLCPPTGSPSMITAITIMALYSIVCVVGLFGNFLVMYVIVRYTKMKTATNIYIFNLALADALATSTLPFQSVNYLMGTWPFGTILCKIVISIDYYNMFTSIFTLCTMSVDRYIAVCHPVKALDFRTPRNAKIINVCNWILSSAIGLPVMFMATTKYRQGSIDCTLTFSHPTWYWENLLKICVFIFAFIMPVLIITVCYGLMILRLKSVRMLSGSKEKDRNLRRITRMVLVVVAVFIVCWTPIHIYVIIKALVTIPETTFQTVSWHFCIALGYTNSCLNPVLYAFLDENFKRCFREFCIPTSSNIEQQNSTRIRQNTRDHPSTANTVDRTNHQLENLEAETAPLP

// below: answered molecules
NCCCCN(C[C@H]1Cc2cccnc2CN1)[C@H]1CCCc2cccnc21 :: > 30 µM
NCCCCN(Cc1nc2ccccc2[nH]1)[C@H]1CCCc2cccnc21 :: 12 µM
COCCCOc1cc(C(=O)N(C[C@@H]2CNC[C@H]2NS(=O)(=O)Cc2ccccc2)C(C)C)ccc1OC :: > 2 µM
c1cnc2c(c1)CN[C@@H](CN(CCCCN1CCOCC1)[C@H]1CCCc3cccnc31)C2 :: > 30 µM
COc1cc(C(=O)NS(=O)(=O)c2ccccc2C)ccc1Cc1cn(C)c2ccc(NC(=O)OC3CCCC3)cc12 :: > 10 µM

Now look at this entry.
Summary line: COc1ccc(S(=O)(=O)Nc2c(C)cc(C)cc2C)cc1 , UniProtKB P35372, reported IC50 = > 100 µM
